Value source: paper PMC10675340

procedure-details: In vivo tumor targeting and biodistribution in nude mice bearing MDA-MB-231 xenografts
Design: species or system mouse
measurement-context: mouse, tumor/blood, total radioactivity; nude mice with MDA-MB-231 xenografts, 45 min p.i.; read-out: Tumor/blood uptake ratio
Where a SMILES comes first, the peptide text is derived from it. [ ]: non-standard residue; d: D form. The star is where a group is joined. DOTA = O=C(O)CN1CCN(CC(=O)O)CCN(CC(=O)*)CCN(CC(=O)O)CC1; βAla = NCCC(=O)O
recorded-endpoint: tissue to tissue ratio at 0.75 h

Any idea what its tissue to tissue ratio at 0.75 h is? The compound is CC[C@H](C)[C@H](NC(=O)[C@H](Cc1ccc(O)cc1)NC(=O)[C@@H](NC(=O)[C@H](CCCNC(=N)N)NC(=O)[C@H](CC(=O)O)NC(=O)CCNC(=O)[C@H](CCCCN)NC(=O)CN1CCN(CC(=O)O)CCN(CC(=O)O)CCN(CC(=O)O)CC1)C(C)C)C(=O)N[C@@H](Cc1c[nH]cn1)C(=O)N1CCC[C@H]1C(=O)N[C@@H](Cc1ccccc1)C(=O)N[C@@H](Cc1c[nH]c2ccccc12)C(=O)N[C@@H](CCCCN)C(=O)N[C@@H](Cc1ccc(O)cc1)C(N)=O [^68Ga-DOTA-AngII peptide, metal not drawn] ({DOTA}-K[βAla]DRVYIHPFWKY-NH2) 3.96
